Cited source: the supplement of paper PMC10567573

B1: C8orf76 (parent)
chain: YCAKLCEPQWFYEETESSDDVEVL

# Variants of: B1
# test: protein stability index of a GFP-peptide fusion (GPS, HEK-293T) (PSI 1-6); higher = more stable;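 note: lentivirally expressed fusions sorted by FACS into six bins by GFP to DsRed ratio, PSI derived from sequencing read proportions per bin multiplied by bin number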
# condition-summary: c terminus: a fixed tail appended
Rule: 1 for protein stability index not less than 2, -1 for anything less.

A selection of reference data follows.
mutation-string	discrete-label
P8T	1
E14T	1
E16M	1
E16P	-1
L5E	1
A3M	1

Kindly determine if protein stability index recorded for D19S is above or exactly 2.
1

Kindly determine if protein stability index recorded for E13Y is above or exactly 2.
-1

Kindly determine if protein stability index recorded for L5Q is above or exactly 2.
1

Kindly determine if protein stability index recorded for W10L is above or exactly 2.
1

Kindly determine if protein stability index recorded for E13Q is above or exactly 2.
-1
